Item-by-item account of food intake
- System: Caenorhabditis elegans N2
- protocolNotes: food intake (mean delta OD600 / animal over 72 h) with 50 uM loxapine co-treatment (OD600 units per animal); higher = more food eaten (less suppression of loxapine-induced hyperphagia)
- cond: first compound 33 µM, loxapine concentration 50 µM

{"molecule": "CC1(C)O[C@@H]2C[C@H]3[C@@H]4CCC5=CC(=O)C=C[C@]5(C)[C@@]4(F)[C@@H](O)C[C@]3(C)[C@]2(C(=O)CO)O1 [triamcinolone (acetonide)] + CN1CCN(C2=Nc3ccccc3Oc3ccc(Cl)cc32)CC1", "testedOn": "Caenorhabditis elegans N2", "food intake": 0.0224}
{"molecule": "C1CCN2C[C@@H]3C[C@@H](CN4CCCC[C@@H]34)[C@H]2C1 [(-)-sparteine (sulfate pentahydrate)] + CN1CCN(C2=Nc3ccccc3Oc3ccc(Cl)cc32)CC1", "testedOn": "Caenorhabditis elegans N2", "food intake": 0.0235}

====

# food intake annotations
- Test system: Caenorhabditis elegans N2
- protocolNotes: food intake (mean delta OD600 / animal over 72 h) with 50 uM loxapine co-treatment (OD600 units per animal); higher = more food eaten (less suppression of loxapine-induced hyperphagia)
- cond: first compound 33 µM, loxapine concentration 50 µM
Counter-ions that a name gives are not always drawn.
quantityName: food intake

{"compound": "S=c1nc[nH]c2nc[nH]c12 [6-Mercaptopurine] + CN1CCN(C2=Nc3ccccc3Oc3ccc(Cl)cc32)CC1 [loxapine]", "quantitativeResult": 0.0218}
{"compound": "CCOC(=O)C(C)(C)Oc1ccc(Cl)cc1 [clofibrate] + CN1CCN(C2=Nc3ccccc3Oc3ccc(Cl)cc32)CC1 [loxapine]", "quantitativeResult": 0.0218}
{"compound": "NC12CC3CC(CC(C3)C1)C2 [amantadine (hydrochloride)] + CN1CCN(C2=Nc3ccccc3Oc3ccc(Cl)cc32)CC1 [loxapine]", "quantitativeResult": 0.0253}
{"compound": "O=C(Nc1c(Cl)cncc1Cl)c1ccc(OC(F)F)c(OCC2CC2)c1 [roflumilast] + CN1CCN(C2=Nc3ccccc3Oc3ccc(Cl)cc32)CC1 [loxapine]", "quantitativeResult": 0.0214}
{"compound": "COc1ccc(CCN(C)CCCN2CCc3cc(OC)c(OC)cc3CC2=O)cc1OC [zatebradine] + CN1CCN(C2=Nc3ccccc3Oc3ccc(Cl)cc32)CC1 [loxapine]", "quantitativeResult": 0.0232}
{"compound": "CC(=O)O[C@H]1Cc2ccccc2N(C(N)=O)c2ccccc21 [eslicarbazepine (acetate)] + CN1CCN(C2=Nc3ccccc3Oc3ccc(Cl)cc32)CC1 [loxapine]", "quantitativeResult": 0.0232}
{"compound": "NS(=O)(=O)c1ccc(C(=O)O)cc1 [carzenide] + CN1CCN(C2=Nc3ccccc3Oc3ccc(Cl)cc32)CC1 [loxapine]", "quantitativeResult": 0.0251}
{"compound": "S=C=Nc1ccc(N=C=S)cc1 [p-Phenylene diisothiocyanate] + CN1CCN(C2=Nc3ccccc3Oc3ccc(Cl)cc32)CC1 [loxapine]", "quantitativeResult": 0.0229}
{"compound": "CC(=O)C1C(=O)C=C(C)OC1=O (stereo not drawn) [dehydroacetic acid] + CN1CCN(C2=Nc3ccccc3Oc3ccc(Cl)cc32)CC1 [loxapine]", "quantitativeResult": 0.0214}
{"compound": "Nc1nccs1 [aminothiazole] + CN1CCN(C2=Nc3ccccc3Oc3ccc(Cl)cc32)CC1 [loxapine]", "quantitativeResult": 0.0243}
{"compound": "CCc1c2c(nc3ccc(OC(=O)N4CCC(N5CCCCC5)CC4)cc13)-c1cc3c(c(=O)n1C2)COC(=O)[C@]3(O)CC [Irinotecan] + CN1CCN(C2=Nc3ccccc3Oc3ccc(Cl)cc32)CC1 [loxapine]", "quantitativeResult": 0.022}
{"compound": "CC(C)C(=O)c1c(C(C)C)nn2ccccc12 [ibudilast] + CN1CCN(C2=Nc3ccccc3Oc3ccc(Cl)cc32)CC1 [loxapine]", "quantitativeResult": 0.0243}
{"compound": "CN1CC(=O)N2[C@H](c3ccc4c(c3)OCO4)c3[nH]c4ccccc4c3C[C@@H]2C1=O [tadalafil] + CN1CCN(C2=Nc3ccccc3Oc3ccc(Cl)cc32)CC1 [loxapine]", "quantitativeResult": 0.0236}
{"compound": "O=C1CCc2cc(OCCCCc3nnnn3C3CCCCC3)ccc2N1 [cilostazol] + CN1CCN(C2=Nc3ccccc3Oc3ccc(Cl)cc32)CC1 [loxapine]", "quantitativeResult": 0.0227}
{"compound": "Cc1cccc(-c2nn3c(c2-c2ccnc4ccc(C(N)=O)cc24)CCC3)n1 + CN1CCN(C2=Nc3ccccc3Oc3ccc(Cl)cc32)CC1 [loxapine]", "quantitativeResult": 0.0252}
{"compound": "CCOC(=O)c1c(CSc2ccccc2)n(C)c2cc(Br)c(O)c(CN(C)C)c12 [arbidol (hydrochloride)] + CN1CCN(C2=Nc3ccccc3Oc3ccc(Cl)cc32)CC1 [loxapine]", "quantitativeResult": 0.0227}
{"compound": "CC1(C)[C@H](C(=O)O)N2C(=O)C[C@H]2S1(=O)=O [sulbactam] + CN1CCN(C2=Nc3ccccc3Oc3ccc(Cl)cc32)CC1 [loxapine]", "quantitativeResult": 0.0225}
{"compound": "NC(=O)c1cnccn1 [pyrazinamide] + CN1CCN(C2=Nc3ccccc3Oc3ccc(Cl)cc32)CC1 [loxapine]", "quantitativeResult": 0.0222}
{"compound": "CCOc1ccccc1OCCN[C@H](C)Cc1ccc(OC)c(S(N)(=O)=O)c1 [tamsulosin] + CN1CCN(C2=Nc3ccccc3Oc3ccc(Cl)cc32)CC1 [loxapine]", "quantitativeResult": 0.022}
{"compound": "CN(C)[C@@H]1C(O)=C(C(N)=O)C(=O)[C@@]2(O)C(O)=C3C(=O)c4c(O)ccc(Cl)c4[C@@H](O)[C@H]3C[C@@H]12 [demeclocycline (hydrochloride)] + CN1CCN(C2=Nc3ccccc3Oc3ccc(Cl)cc32)CC1 [loxapine]", "quantitativeResult": 0.0207}
{"compound": "O=P(O)(O)C(O)(Cn1ccnc1)P(=O)(O)O [Zoledronic acid (monohydrate)] + CN1CCN(C2=Nc3ccccc3Oc3ccc(Cl)cc32)CC1 [loxapine]", "quantitativeResult": 0.0237}
{"compound": "CN1C2=CC(=O)/C(=N\\NC(N)=O)C=C2CC1S(=O)(=O)O (stereo not drawn) [carbazochrome (sodium sulfonate)] + CN1CCN(C2=Nc3ccccc3Oc3ccc(Cl)cc32)CC1 [loxapine]", "quantitativeResult": 0.0296}
{"compound": "CN(CCOc1ccc(CC2SC(=O)NC2=O)cc1)c1ccccn1 (stereo not drawn) [rosiglitazone (maleate)] + CN1CCN(C2=Nc3ccccc3Oc3ccc(Cl)cc32)CC1 [loxapine]", "quantitativeResult": 0.0207}

====

Measured food intake by item
- Test system: Caenorhabditis elegans N2
- protocolNotes: food intake (mean delta OD600 / animal over 72 h) with 50 uM loxapine co-treatment (OD600 units per animal); higher = more food eaten (less suppression of loxapine-induced hyperphagia)
- cond: first compound 33 µM, loxapine concentration 50 µM

{"compound": "COc1cc(O)c(C(=O)c2ccccc2)cc1S(=O)(=O)O [sulisobenzone] + CN1CCN(C2=Nc3ccccc3Oc3ccc(Cl)cc32)CC1 [loxapine]", "food intake": 0.0234}
{"compound": "CCOC(=O)/C=C(C)/C=C/C=C(C)/C=C/c1c(C)cc(OC)c(C)c1C [etretinate] + CN1CCN(C2=Nc3ccccc3Oc3ccc(Cl)cc32)CC1 [loxapine]", "food intake": 0.0213}
{"compound": "CN1C(=O)C[C@@H](C(=O)N[C@@H](Cc2c[nH]cn2)C(=O)N2CCC[C@H]2C(N)=O)NC1=O [taltirelin] + CN1CCN(C2=Nc3ccccc3Oc3ccc(Cl)cc32)CC1 [loxapine]", "food intake": 0.022}

====

Each entry below carries its reported food intake.
- Test system: Caenorhabditis elegans N2
- protocolNotes: food intake (mean delta OD600 / animal over 72 h) with 50 uM loxapine co-treatment (OD600 units per animal); higher = more food eaten (less suppression of loxapine-induced hyperphagia)
- cond: first compound 33 µM, loxapine concentration 50 µM
Structures can show the parent of a compound that is named as a salt.

{"compound": "CC(C)(Oc1ccc(CCNC(=O)c2ccc(Cl)cc2)cc1)C(=O)O [bezafibrate] + CN1CCN(C2=Nc3ccccc3Oc3ccc(Cl)cc32)CC1 [loxapine]", "food intake": 0.0212}
{"compound": "O=C(O)COC(=O)Cc1ccccc1Nc1c(Cl)cccc1Cl [aceclofenac] + CN1CCN(C2=Nc3ccccc3Oc3ccc(Cl)cc32)CC1 [loxapine]", "food intake": 0.0221}
{"compound": "COc1cc(OC)c(C(=O)CCCN2CCCC2)c(OC)c1 [buflomedil (hydrochloride)] + CN1CCN(C2=Nc3ccccc3Oc3ccc(Cl)cc32)CC1 [loxapine]", "food intake": 0.0222}
{"compound": "Clc1ccc(COC(Cn2ccnc2)c2ccc(Cl)cc2Cl)c(Cl)c1 (configuration not stated) [miconazole (nitrate)] + CN1CCN(C2=Nc3ccccc3Oc3ccc(Cl)cc32)CC1 [loxapine]", "food intake": 0.0169}
{"compound": "O=C(O)CCCCCCCC(=O)O [azelaic acid] + CN1CCN(C2=Nc3ccccc3Oc3ccc(Cl)cc32)CC1 [loxapine]", "food intake": 0.0259}
{"compound": "Cc1cn([C@@H]2C[C@@H](O)[C@H](CO)O2)c(=O)[nH]c1=O [telbivudine] + CN1CCN(C2=Nc3ccccc3Oc3ccc(Cl)cc32)CC1 [loxapine]", "food intake": 0.0219}
{"compound": "C#C[C@]1(O)CC[C@H]2[C@@H]3CCc4cc(OC)ccc4[C@H]3CC[C@@]21C [mestranol] + CN1CCN(C2=Nc3ccccc3Oc3ccc(Cl)cc32)CC1 [loxapine]", "food intake": 0.0204}
{"compound": "CCCc1nn(C)c2c(=O)[nH]c(-c3cc(S(=O)(=O)N4CCN(C)CC4)ccc3OCC)nc12 [sildenafil (citrate)] + CN1CCN(C2=Nc3ccccc3Oc3ccc(Cl)cc32)CC1 [loxapine]", "food intake": 0.024}
{"compound": "O=C1NC(=O)C(c2ccccc2)(c2ccccc2)N1 [phenytoin] + CN1CCN(C2=Nc3ccccc3Oc3ccc(Cl)cc32)CC1 [loxapine]", "food intake": 0.0218}
{"compound": "C[N+](C)(C)CCCCCC[N+](C)(C)C [hexamethonium (bromide)] + CN1CCN(C2=Nc3ccccc3Oc3ccc(Cl)cc32)CC1 [loxapine]", "food intake": 0.0215}
{"compound": "Nc1ccn([C@@H]2CS[C@H](CO)O2)c(=O)n1 [lamivudine] + CN1CCN(C2=Nc3ccccc3Oc3ccc(Cl)cc32)CC1 [loxapine]", "food intake": 0.0212}
{"compound": "CC(C)NCC(O)COc1ccc(CCOCC2CC2)cc1 (configuration not stated) [betaxolol] + CN1CCN(C2=Nc3ccccc3Oc3ccc(Cl)cc32)CC1 [loxapine]", "food intake": 0.0265}
